Reference source for all entries: patent US7022716B2

Molecular target: human β3 adrenergic receptor (Homo sapiens, UniProt P13945)
Construct: Full length β3 AR clones (402 amino acids) containing the last 6 amino acids of hβ3-AR are prepared; expressed in transfected cells; host or cells: CHO (Chinese hamster ovary) cells
Sequence (P13945 whole entry): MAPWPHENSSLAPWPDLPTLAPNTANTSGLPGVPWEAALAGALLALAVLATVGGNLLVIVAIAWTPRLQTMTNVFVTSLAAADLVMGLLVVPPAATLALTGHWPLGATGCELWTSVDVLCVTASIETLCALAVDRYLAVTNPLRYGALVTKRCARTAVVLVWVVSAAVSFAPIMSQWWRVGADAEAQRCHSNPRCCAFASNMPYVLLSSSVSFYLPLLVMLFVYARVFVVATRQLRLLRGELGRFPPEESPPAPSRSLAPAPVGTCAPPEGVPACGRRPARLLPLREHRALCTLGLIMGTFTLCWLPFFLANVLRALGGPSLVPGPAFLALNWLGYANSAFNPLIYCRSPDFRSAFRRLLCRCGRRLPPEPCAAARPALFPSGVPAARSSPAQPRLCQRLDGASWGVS
Test: cAMP (SPA) response in CHO cells transfected with human β3 adrenergic receptor
Format: cell-based
Parameters: key: fraction of maximal isoproterenol (10^-5 M) response
Conditions: maximal response relative to maximal response of isoproterenol at 10^-5 M
QUANTITY NAME: IA(β3)
Numbers only.

>>> assay_result("CS(=O)(=O)Nc1cc([C@@H](O)CNC2CCN(c3ccc(C(=O)NOCc4ccccc4)cc3)CC2)ccc1O")
1

Give me IA(β3) for each of these molecules, listed below.
1. O=C(NCc1ccc(S(=O)(=O)Nc2ccc(N3CCC(NCC(O)c4cccc(O)c4)CC3)cc2)s1)c1ccccc1 (stereo not shown)
2. O=c1[nH]c2cccc(OC[C@@H](O)CNC3CCN(c4ccc(NS(=O)(=O)c5ccc(Cl)cc5)cc4)CC3)c2[nH]1
3. Cc1c(S(=O)(=O)Nc2ccc(N3CCC(NC[C@H](O)COc4cccc5[nH]c(=O)[nH]c45)CC3)cc2)sc2ccc(Cl)cc12
4. CCCCN(Cc1nnn[nH]1)C(=O)c1ccc(N2CCC(NC[C@H](O)c3ccc(O)c(NS(C)(=O)=O)c3)CC2)cc1

output:
1. 1.26
2. 1
3. 0.81
4. 0.97

Items follow; give IA(β3) for each.
1. CC(=O)Nc1ccc(S(=O)(=O)Nc2ccc(N3CC(NC[C@H](O)COc4cccc5[nH]c6ccccc6c45)C3)cc2)cc1
2. O=c1[nH]c2cccc(OC[C@@H](O)CNC3CCN(c4ccc(NS(=O)(=O)c5ccc(S(=O)(=O)c6ccc(C(F)(F)F)cn6)s5)cc4)CC3)c2[nH]1

output:
0.71
1.1
